System: V-C8 (BRCA2-deficient hamster cells)
assay.summary: normalised cell viability (fraction of plate median); higher = more viable cells (less toxic)
reported.conditions: treatment time: 3 days; 5 µM
Where a name gives a salt, the structure may show the parent alone. In all, about 1,300 compounds were measured (“normalised cell viability”: median about 1, lowest 2% from about 0.14 on). Shown is part of a subset that was picked to be rich in the lowest values.
One threshold, 0.8, splits the recorded normalised cell viability values: lower ones are true (1), equal or higher ones are false (0).

Bench note: check whether `Cn1c(=O)c2c(ncn2CCO)n(C)c1=O` shows normalised cell viability below 0.8 false (0)

Same read-out for CCCC(=O)Nc1ncnc2c1ncn2[C@@H]1O[C@@H]2COP(=O)(O)O[C@H]2[C@H]1OC(=O)CCC [Bucladesine sodium salt] ? false (0)

Same read-out for Cc1c(C)c2c(c(C)c1O)CCC(C)(COc1ccc(CC3SC(=O)NC3=O)cc1)O2 (centres undefined) ? true (1)

Same read-out for `C[C@H]1NC(=O)NC1=O` ? false (0)

Same read-out for `CC(=O)O[C@H]1C(=O)[C@@]2(C)[C@H]([C@H](OC(=O)c3ccccc3)[C@]3(O)C[C@H](OC(=O)[C@H](O)[C@@H](NC(=O)c4ccccc4)c4ccccc4)C(C)=C1C3(C)C)[C@]1(OC(C)=O)CO[C@@H]1C[C@@H]2O` ? true (1)

Same read-out for `Cc1ncc([N+](=O)[O-])n1CCO` ? false (0)

Same read-out for O=C(O)[C@H]1/C(=C/CO)O[C@@H]2CC(=O)N21 [Potassium clavulanate] ? false (0)

* * *

Test system: V-C8 (BRCA2-deficient hamster cells)
assay.summary: normalised cell viability (fraction of plate median); higher = more viable cells (less toxic)
reported.conditions: treatment time: 6 days; 5 µM
Counter-ions that a name gives are not always drawn. Over roughly 1,300 compounds, “normalised cell viability” has its median near 1; the lowest 2% begin near 0.14. This is one part of a sample in which the lowest values are shown more often than they occur.
One threshold, 1, splits the recorded normalised cell viability values: lower ones are yes, equal or higher ones are no.

Bench note: check whether Clc1ccc(C(Cn2ccnc2)OCc2ccsc2Cl)c(Cl)c1 (stereo not given) [Tioconazole] shows normalised cell viability below 1 yes

Same read-out for c1ccc(-c2ccc(C(c3ccccc3)n3ccnc3)cc2)cc1 (stereo not given) [Bifonazole] ? yes

Same read-out for CCOc1ccc2c(c1)C(C)=CC(C)(C)N2 [Ethoxyquin] ? no

Same read-out for Cc1c(Nc2ncccc2C(=O)O)cccc1C(F)(F)F [Flunixin meglumine] ? no

Same read-out for CC(C)NC[C@@H](O)COc1cccc2ccccc12 [(R)-Propranolol hydrochloride] ? no

* * *

Test system: V-C8 (BRCA2-deficient hamster cells)
assay.summary: normalised cell viability (fraction of plate median); higher = more viable cells (less toxic)
reported.conditions: treatment time: 3 days; 5 µM
Structures can show the parent of a compound that is named as a salt. Whole data set: some 1,300 compounds, median “normalised cell viability” near 1, cut for the lowest 2% near 0.14. This excerpt belongs to a sample that is enriched for the lowest values.
One threshold, 0.9, splits the recorded normalised cell viability values: lower ones are YES, equal or higher ones are NO.

Bench note: check whether O=C1c2cccc(O)c2C(=O)c2c(O)cccc21 [1,8-Dihydroxyanthraquinone] shows normalised cell viability below 0.9 YES

Same read-out for `O=C1c2c(O)cccc2Cc2cccc(O)c21` ? NO

Same read-out for `Cc1ccnc2c1NC(=O)c1cccnc1N2C1CC1` ? NO

Same read-out for `Nc1ccc(S(=O)(=O)Nc2ccnn2-c2ccccc2)cc1` ? NO

Same read-out for CC(C)NCC(O)c1ccc(O)c(O)c1 (single isomer, unassigned; (-)) [(-)-Isoproterenol hydrochloride] ? NO

* * *

Tested on: V-C8 (BRCA2-deficient hamster cells)
assay.summary: normalised cell viability (fraction of plate median); higher = more viable cells (less toxic)
reported.conditions: treatment time: 3 days; 5 µM
Structures can show the parent of a compound that is named as a salt. The full ranking holds about 1,300 compounds; the median of “normalised cell viability” is about 1, and the lowest 2% start at about 0.14. The sample as a whole holds a higher share of the lowest values than the screen did.
One threshold, 1, splits the recorded normalised cell viability values: lower ones are Satisfied, equal or higher ones are Not satisfied.

Bench note: check whether Nc1ccn([C@@H]2O[C@H](CO)[C@@H](O)[C@@H]2O)c(=O)n1 [Cytarabine] shows normalised cell viability below 1 Satisfied

Same read-out for CN1CCN(C2=Nc3ccccc3Oc3ccc(Cl)cc32)CC1 [Loxapine succinate] ? Not satisfied

Same read-out for CC(C)/N=c1\cc2n(-c3ccc(Cl)cc3)c3ccccc3nc-2cc1Nc1ccc(Cl)cc1 [Clofazimine] ? Satisfied

Same read-out for COC(=O)Nc1nc2ccc(SC(C)C)cc2[nH]1 [Methiazole] ? Satisfied

Same read-out for c1ccc(-c2ccc(C(c3ccccc3)n3ccnc3)cc2)cc1 (stereo not drawn) [Bifonazole] ? Satisfied

Same read-out for CN(C/C=C/c1ccccc1)Cc1cccc2ccccc12 [Naftifine hydrochloride] ? Satisfied

Same read-out for N=C(N)NC(=N)NCCc1ccccc1 [Phenformin hydrochloride] ? Satisfied

Same read-out for Cc1c(Nc2ncccc2C(=O)O)cccc1C(F)(F)F [Flunixin meglumine] ? Not satisfied

Same read-out for C=CC[N@@+]12CC[C@@]34c5ccccc5N5/C=C6/[C@H]7C[C@H]8[C@@]9(CC[N@@+]8(CC=C)C/C7=C/CO)c7ccccc7N(/C=C(/[C@@H](C[C@@H]31)/C(=C\CO)C2)[C@H]54)[C@@H]69 [Alcuronium chloride] ? Satisfied

Same read-out for CN[C@@H]1[C@@H](O)[C@@H](O[C@@H]2[C@@H](O)[C@H](O[C@H]3OC(CN)=CC[C@H]3N)[C@@H](N)C[C@H]2N)OC[C@]1(C)O [Sisomicin sulfate] ? Satisfied

Same read-out for CN1CCCC(CC2c3ccccc3Sc3ccccc32)C1 (stereo not drawn) [Metixene hydrochloride] ? Satisfied

Same read-out for CC(=O)NC[C@H]1CN(c2ccc(N3CCOCC3)c(F)c2)C(=O)O1 [Linezolid] ? Not satisfied

Same read-out for CC(C)(S)[C@@H](N)C(=O)O [Penicillamine] ? Satisfied

Same read-out for C=C1C(=O)O[C@H]2[C@H]1CC/C(C)=C/CC[C@@]1(C)O[C@@H]21 [Parthenolide] ? Satisfied

Same read-out for Nc1ccn([C@@H]2CS[C@H](CO)O2)c(=O)n1 [Lamivudine] ? Satisfied

Same read-out for N=C(NCCCCCCNC(=N)NC(=N)Nc1ccc(Cl)cc1)NC(=N)Nc1ccc(Cl)cc1 [Chlorhexidine] ? Satisfied

Same read-out for Nc1cc(-c2ccncc2)c[nH]c1=O [Amrinone] ? Satisfied

Same read-out for CCOc1ccc(Cc2nccc3cc(OCC)c(OCC)cc23)cc1OCC [Ethaverine hydrochloride] ? Satisfied

Same read-out for C=CCOC(Cn1ccnc1)c1ccc(Cl)cc1Cl (stereo not drawn) [Enilconazole] ? Satisfied

Same read-out for CC(C)(C)C(=O)OCOC(=O)[C@@H]1N2C(=O)[C@@H](/N=C/N3CCCCCC3)[C@H]2SC1(C)C [Pivmecillinam hydrochloride] ? Satisfied

Same read-out for CC(C)c1ccc2oc3nc(N)c(C(=O)O)cc3c(=O)c2c1 [Amlexanox] ? Satisfied

Same read-out for Nc1ccc(O)c(C(=O)O)c1 [Mesalamine] ? Not satisfied

Same read-out for CC(CN(C)C)C(C)(O)Cc1ccc(Cl)cc1 (stereo not drawn) [Clobutinol hydrochloride] ? Not satisfied

* * *

Test system: V-C8 (BRCA2-deficient hamster cells)
assay.summary: normalised cell viability (fraction of plate median); higher = more viable cells (less toxic)
reported.conditions: treatment time: 6 days; 5 µM
Where a name gives a salt, the structure may show the parent alone. Over roughly 1,300 compounds, “normalised cell viability” has its median near 1; the lowest 2% begin near 0.14. Many of the other results were omitted from the sample, so the lowest values are more common in it than they were.
One threshold, 1, splits the recorded normalised cell viability values: lower ones are YES, equal or higher ones are NO.

Bench note: check whether COC(=O)C1=C(C)NC(C)=C(C(=O)OCC(C)C)C1c1ccccc1[N+](=O)[O-] (stereo not drawn) shows normalised cell viability below 1 YES

Same read-out for `Cc1cc(NS(=O)(=O)c2ccc(N)cc2)no1` ? YES

Same read-out for C=CCOC(Cn1ccnc1)c1ccc(Cl)cc1Cl (stereo not drawn) ? YES

Same read-out for NNc1nncc2ccccc12 [Hydralazine hydrochloride] ? NO

Same read-out for `CC[C@H](C)C(=O)O[C@H]1CCC=C2C=C[C@H](C)[C@H](CC[C@@H]3C[C@@H](O)CC(=O)O3)[C@H]21` ? YES

Same read-out for CNC(=C[N+](=O)[O-])NCCSCc1ccc(CN(C)C)o1 [Ranitidine hydrochloride] ? NO

* * *

Tested on: V-C8 (BRCA2-deficient hamster cells)
assay.summary: normalised cell viability (fraction of plate median); higher = more viable cells (less toxic)
reported.conditions: treatment time: 6 days; 5 µM
Structures can show the parent of a compound that is named as a salt. Over roughly 1,300 compounds, “normalised cell viability” has its median near 1; the lowest 2% begin near 0.14. This excerpt belongs to a sample that is enriched for the lowest values.
One threshold, 1, splits the recorded normalised cell viability values: lower ones are rule met, equal or higher ones are rule not met.

Bench note: check whether CC/C(=C(\c1ccccc1)c1ccc(OCCN(C)C)cc1)c1ccccc1 [Tamoxifen citrate] shows normalised cell viability below 1 rule met

Same read-out for C[C@H]1NC(=O)NC1=O [Methylhydantoin-5-(D)] ? rule met

Same read-out for C#CCN[C@@H]1CCc2ccccc21 [Rasagiline] ? rule not met

Same read-out for CC(=O)Nc1ccc(CC(=O)O)cc1 [Actarit] ? rule not met

Same read-out for CCN(CC)CCOc1ccc(C(=C(Cl)c2ccccc2)c2ccccc2)cc1 [Clomiphene citrate (Z,E)] ? rule met

Same read-out for OCCN1CCN(CC/C=C2/c3ccccc3Sc3ccc(Cl)cc32)CC1 [Zuclopenthixol hydrochloride] ? rule met

Same read-out for CCc1cccc(CC)c1NC(=O)CN(CC(=O)O)CC(=O)O [Etifenin] ? rule not met

Same read-out for Cc1cc(/C=C/c2ccc3cc(N(C)C)ccc3[n+]2C)c(C)n1-c1ccccc1 [Pyrvinium pamoate] ? rule met

Reference for the values: the supplement of paper PMC6609913
